Assignment: determine reported composite z-score for the given compounds.
# Target under test: Alpha-bungarotoxin (Bungarus multicinctus)
# Assay notes: compounds binding labelled alpha-BTX control protein – biochemical, small-molecule microarray, Alexa647 label, 635/667 nm fluorescence, artefact control for SMM control protein annotation, profiling panel (AID 1117)
# Condition parameters: alpha-BTX-A647 binding fluorescence, higher = more signal
Response field accepts a number only; no unit should be typed.

// recorded composite z-score for "CCCC=C(CCC)[C@@H](NC(=O)OCC(C)C)c1ccccc1" : 0.703

// recorded composite z-score for CN1C(=O)C2C=CC(C(O)c3c(F)cccc3Cl)N(NC(=O)OC(C)(C)C)C2C1=O (centres undefined) : 1.35

// recorded composite z-score for "COc1ccc([Si](C)(C)[C@H]2[C@H](CCO)O[C@@]3(C(=O)N(Cc4ccccc4)c4ccc(N5CCCCC5=O)cc43)[C@@H]2C)cc1" : 0.883

// recorded composite z-score for "CO[C@H]1O[C@H](CO)[C@@H](OC(=O)Nc2ccccc2-c2ccccc2)[C@H](OC(=O)Nc2ccccc2-c2ccccc2)[C@@H]1OC(=O)Nc1ccccc1-c1ccccc1" : 0.818

---

# Assay notes: compound effects on hepatocellular carcinoma cell viability – HepG2, calcein-AM fluorescence, 48 h, basal, profiling panel (AID 1164); further: test concentration not given here
# Condition parameters: higher = more signal
Note to self: values exactly at -0.8 are true. So z-score at or above -0.8 is true, below is false.

// query Kindly determine if z-score recorded for "COC(=O)c1c2oc(c1C(=O)OC)C(=O)N[C@@H](C(C)C)Cn1cc(nn1)C1(CCCCC1)NC(=O)N[C@H](CO)CC2" is above or exactly -0.8.
// result true

// query Kindly determine if z-score recorded for "COC(=O)C(CC#Cc1ccc2c(c1)[C@]1(C(=O)N2)[C@H](c2ccc(O)cc2)N2[C@H](c3ccccc3)[C@H](c3ccccc3)OC(=O)[C@H]2[C@@H]1C(=O)N1CCN(c2ncccn2)CC1)C(=O)OC" is above or exactly -0.8.
// result true

// query Kindly determine if z-score recorded for "C=CCN1C(=O)[C@]2(Cc3ccccc3)N=C(c3ccc(OCCCO)cc3)O[C@@H]2c2ccccc21" is above or exactly -0.8.
// result false

// query Kindly determine if z-score recorded for CCOc1ccc(N2C(=O)CSC2c2cccc([N+](=O)[O-])c2)cc1 (centres undefined) is above or exactly -0.8.
// result true

// query Kindly determine if z-score recorded for "O=C1[C@H]2C=C(I)[C@H](C[C@@H]2OCCCCO)[C@@]12CO2" is above or exactly -0.8.
// result true

// query Kindly determine if z-score recorded for "COc1ccc(C(=O)Nc2cccc(CN3C(=O)[C@]4(O[C@H](CCn5cc(CCO)nn5)[C@@H]([Si](C)(C)c5ccc(OC)cc5)[C@@H]4C)c4ccccc43)c2)cc1" is above or exactly -0.8.
// result false

// query Kindly determine if z-score recorded for "CC(C)Cc1ccc(CN2CC[C@@H](N)C2)cc1" is above or exactly -0.8.
// result true

// query Kindly determine if z-score recorded for "O=C1[C@@]23C=C(Br)[C@H](C[C@@H]2COC3)[C@]12CO2" is above or exactly -0.8.
// result false

// query Kindly determine if z-score recorded for COc1cc2c(cc1O)C(c1cccs1)N(Cc1ccc([N+](=O)[O-])o1)CC2 (centres undefined) is above or exactly -0.8.
// result true

// query Kindly determine if z-score recorded for O=C(O)C1N=C(c2ccc(OCCCO)cc2)N(c2ccccc2)O1 (centres undefined) is above or exactly -0.8.
// result true

// query Kindly determine if z-score recorded for O=C1C2C=CC(C(O)C=Cc3ccc([N+](=O)[O-])cc3)N(n3cnnc3)C2C(=O)N1Cc1ccccc1 (centres undefined) is above or exactly -0.8.
// result true

// query Kindly determine if z-score recorded for COc1ccc(C(O)C2C=CC3C(=O)N(C)C(=O)C3N2NC(=O)OC(C)(C)C)c2ccccc12 (centres undefined) is above or exactly -0.8.
// result false

---

# Assay notes: plasmodial surface anion channel blockers, osmotic lysis – cell-based, P. falciparum Indochina, OD700, 2 h, primary screen (AID 1155);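 further: lysis reports solute entry through the parasite surface anion channel PSAC; channel blockers reduce lysis of infected cells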
# Condition parameters: P. falciparum Indochina infected erythrocytes, higher = more signal, called active from +8 up or from −8 down
Category key, based on recorded z-score: low bin = under 1, mid bin = from 1 up to 2, high bin = 2 and over

// query Band assignment needed for "COCCOC(=O)N1C(=O)[C@@]2(c3cc(C#CC4(O)CCCCCC4)ccc31)[C@H](C(=O)Nc1nc3ccccc3s1)[C@H]1C(=O)O[C@H](c3ccccc3)[C@H](c3ccccc3)N1[C@@H]2c1ccc(OCCO)cc1" please.
// result high bin

// query Band assignment needed for "O=C1O[C@@H](c2ccccc2)[C@@H](c2ccccc2)N2[C@@H](c3ccccc3OCCO)[C@]3(C(=O)Nc4ccc(C#CC5(O)CCCCCC5)cc43)[C@@H](C(=O)N3CCN(c4ncccn4)CC3)[C@H]12" please.
// result mid bin

// query Band assignment needed for "C#CCOc1ccc(C[C@@H](C(=O)OC)N(CC#C)[C@@H](/C=C/C2CC2)[C@H](O)Cc2ccccc2)cc1" please.
// result low bin

// query Band assignment needed for "CCOC(=O)C[C@H]1[C@H](OC(=O)c2ccc(C(=O)c3ccccc3)cc2)[C@@H](NC(=O)Cc2ccc(OC)cc2)c2cc(OCCCO)ccc2N1C(=O)c1ccc2ccccc2n1" please.
// result mid bin

// query Band assignment needed for "COC(=O)[C@@]1(Cc2ccc(F)cc2)[C@H]2c3cc(C(=O)N(C)C)n(Cc4ccc(C)o4)c3C[C@H]2CN1C(=O)c1ccccc1" please.
// result mid bin

// query Band assignment needed for OCC1C=C(/C=C/c2ccccc2)CN1Cc1ccccc1Br (stereo not drawn) please.
// result low bin

// query Band assignment needed for "COCCOC(=O)N1C(=O)[C@@]2(c3cc(C#CC4(O)CCCCCC4)ccc31)[C@H](C(=O)Nc1nc3ccccc3s1)[C@H]1C(=O)O[C@H](c3ccccc3)[C@H](c3ccccc3)N1[C@@H]2c1ccccc1OCCO" please.
// result mid bin

// query Band assignment needed for O=C(O)C1N=C(c2ccc(OCCCO)cc2)N(c2ccccc2)O1 (stereo not drawn) please.
// result high bin

// query Band assignment needed for O=C1NC(=O)C2C1C=CC(C(O)c1ccc(I)cc1)N2Nc1ccccn1 (stereo not drawn) please.
// result low bin

// query Band assignment needed for "COc1ccc([Si](C)(C)[C@@H]2[C@@H](CC(=O)N3CCC[C@H]3CO)O[C@]3(C(=O)N(Cc4cccc(I)c4)c4ccccc43)[C@H]2C)cc1" please.
// result low bin

// query Band assignment needed for C=CCC(OC(C)=O)[C@@H]1[C@@H](N(Cc2ccc(-c3cccc(C(F)(F)F)c3)o2)C(=O)c2cccc3ccccc23)c2cc(OCCCO)ccc2N1C(=O)Cc1ccc2ccccc2c1 (stereo partly drawn) please.
// result low bin

// query Band assignment needed for "C=CCOC(=O)[C@H]1[C@@H]2C(=O)O[C@@H](c3ccccc3)[C@@H](c3ccccc3)N2[C@@H](c2ccc(OCCOC(=O)[C@@H]3C[C@@H]4C(=O)N5CCC[C@H]5C(=O)N4[C@@H]3c3cccc(OCCO)c3)cc2)[C@]12C(=O)Nc1ccc(I)cc12" please.
// result high bin

---

# Target under test: NADPH oxidase 5 (Homo sapiens)
# Assay notes: compounds shifting NOX5 Amplex Red fluorescence – cell-based, HEK293-NOX5, NOX inhibitor project, primary screen (AID 1161)
# Condition parameters: HEK293-NOX5, ionomycin, 45 min, higher = more signal
Note to self: values exactly at -0.6 are 1.0. So z-score at or above -0.6 is 1.0, below is 0.0.

// query Kindly determine if z-score recorded for C=C(C)[C@@H]1CC=C(C(O)C2C=CC3C(=O)NC(=O)C3N2Nc2ccc(Cl)cc2Cl)CC1 (some centres not stated) is above or exactly -0.6.
// result 0.0

// query Kindly determine if z-score recorded for "C=CCNC(=O)[C@H]1[C@@H]2C(=O)O[C@@H](c3ccccc3)[C@@H](c3ccccc3)N2[C@@H](c2ccc(O)cc2)[C@]12C(=O)Nc1ccc(C#CCCO)cc12" is above or exactly -0.6.
// result 1.0

// query Kindly determine if z-score recorded for "C#CCN1[C@@H](Cc2ccc(O)cc2)C(=O)O[C@H](Cc2ccccc2)[C@@H]1/C=C/C1CC1" is above or exactly -0.6.
// result 0.0

// query Kindly determine if z-score recorded for "NC(=O)[C@@]1(Cc2ccccc2)N=C(c2ccc(OCCCO)cc2)O[C@H]1c1ccccc1" is above or exactly -0.6.
// result 1.0

// query Kindly determine if z-score recorded for "COc1ccc(C#Cc2ccc3c(c2)[C@]2(C(=O)N3)[C@H](c3ccc(O)cc3)N3[C@H](c4ccccc4)[C@H](c4ccccc4)OC(=O)[C@H]3[C@@H]2C(=O)N2CCc3cc(OC)c(OC)cc3C2)cc1" is above or exactly -0.6.
// result 1.0

// query Kindly determine if z-score recorded for "CC(=O)NCCCC[C@@H]1NC(=O)[C@H]2C[C@@H](C(=O)NCCCCCNC(=O)CS)[C@@H](c3ccc(O)cc3)N2C1=O" is above or exactly -0.6.
// result 1.0

// query Kindly determine if z-score recorded for "COCC(=C=CC[C@H](O)c1cccc(OCCO)c1)CCO" is above or exactly -0.6.
// result 1.0

Where these numbers come from: PubChem BioAssay
